- target of assay: PLL3 (Photorhabdus laumondii subsp. laumondii, UniProt Q7N8I7)
- Sequence (Q7N8I7 entry or part of it): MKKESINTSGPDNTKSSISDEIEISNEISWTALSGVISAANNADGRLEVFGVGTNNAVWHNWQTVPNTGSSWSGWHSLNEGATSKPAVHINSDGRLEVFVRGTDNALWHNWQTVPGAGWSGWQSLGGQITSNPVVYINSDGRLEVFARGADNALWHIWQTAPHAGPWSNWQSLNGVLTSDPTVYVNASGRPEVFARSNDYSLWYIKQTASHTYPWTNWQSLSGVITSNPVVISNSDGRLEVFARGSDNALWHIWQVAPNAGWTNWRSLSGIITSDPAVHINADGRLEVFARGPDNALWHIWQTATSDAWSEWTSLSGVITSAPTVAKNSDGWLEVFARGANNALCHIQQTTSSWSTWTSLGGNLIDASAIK
- procedure details: Isothermal titration calorimetry (ITC)
- Assay type: binding
- assay setup: KD, stoichiometry fixed to 5, 25 °C
endpoint label: pKd
pKd is defined as minus the log10 of a concentration measured in mol/L.

stdin: Give the reported value of pKd for this record: `O=C[C@H](O)[C@@H](O)[C@@H](O)[C@H](O)CO`
stdout: 2.59

====

- target of assay: PLL3 (Photorhabdus laumondii subsp. laumondii, UniProt Q7N8I7)
- procedure details: Glycan array screening with DyLight 488-labeled PLL3
- Type: binding
- assay setup: glycan array signal of DyLight 488-labeled PLL3 per printed glycan; Table S2, file PLU35_second_noheader.gpr
# maps each entry to its Median
Keep the answer to the number alone.

{"compound": "NCC(=O)NCC(=O)NCC(=O)NCC(=O)NCC(=O)NCC(N)=O", "Median": 530}

stdin: Provide measured Median on PLL3 (Photorhabdus laumondii subsp. laumondii, UniProt Q7N8I7) for `CC(=O)N[C@H]1[C@H](O[C@H]2[C@@H](O)[C@@H](CO)O[C@@H](O[C@@H]([C@H](O)[C@@H](O)C=O)[C@H](O)CO)[C@@H]2O)O[C@H](CO[C@]2(C(=O)O)C[C@H](O)[C@@H](NC(C)=O)[C@H]([C@H](O)[C@H](O)CO)O2)[C@@H](O)[C@@H]1O[C@@H]1O[C@H](CO)[C@H](O)[C@H](O)[C@H]1O` please.
stdout: 348

stdin: Provide measured Median on PLL3 (Photorhabdus laumondii subsp. laumondii, UniProt Q7N8I7) for CC(=O)N[C@H]1[C@H](O[C@H]2[C@@H](O)[C@@H](CO)O[C@@H](O[C@H]3[C@H](O)[C@@H](O)C(O)O[C@@H]3CO)[C@@H]2O)O[C@H](CO)[C@@H](O)[C@@H]1O[C@@H]1O[C@H](CO)[C@H](O)[C@H](O[C@]2(C(=O)O)C[C@H](O)[C@@H](NC(C)=O)[C@H]([C@H](O)[C@H](O)CO)O2)[C@H]1O (some centres unmarked) please.
stdout: 328

stdin: Provide measured Median on PLL3 (Photorhabdus laumondii subsp. laumondii, UniProt Q7N8I7) for `OC[C@H]1O[C@@H](O[C@H]2[C@H](O)[C@@H](O)[C@H](O)O[C@@H]2CO)[C@H](O)[C@@H](O)[C@@H]1O` please.
stdout: 672

stdin: Provide measured Median on PLL3 (Photorhabdus laumondii subsp. laumondii, UniProt Q7N8I7) for `O=P(O)(O)OC[C@H]1O[C@H](O)[C@H](O)[C@@H](O)[C@@H]1O` please.
stdout: 615
